src = ChEMBL document CHEMBL3286201

test: Toxicity in BALB/c mouse assessed as tolerated dose treated ip for 5 consecutive doses; format: organism-based; settings: in vivo
measurement.type: MTD at 5 consecutive doses (mg/kg)

[[record]]
structure_as_smiles = "CNc1nc(NCc2ccccc2)nc2ccccc12"
endpoint_result = 30


----------
In this section we review reported selectivity ratio values for a set of compounds.
test: Selectivity index, ratio of EC50 for mouse J774A1 cells to EC50 for intracellular amastigote stage of Leishmania donovani MHOM/ET/67/L82; type: toxicity, cell-based, J774.A1; details: read-out: Ratio EC50
measurement.type: selectivity ratio

[[record]]
structure_as_smiles = "OCCNc1nc(NCc2ccco2)c2ccccc2n1"
endpoint_result = "> 1.3"

[[record]]
structure_as_smiles = "CC(C)Nc1nc(N(C)C)c2ccccc2n1"
endpoint_result = "> 3.7"

[[record]]
structure_as_smiles = "CCOC(=O)CNc1nc(NC(C)C)nc2ccccc12"
endpoint_result = "> 4.8"

[[record]]
structure_as_smiles = "CC(C)Nc1nc(NCC(F)(F)F)c2ccccc2n1"
endpoint_result = "> 8.9"


----------
assay: Distribution coefficient, log D of the compound at pH 7.4; assay type: physicochemical; conditions: octanol/water
In this section we review reported logD values for a set of compounds.
measurement.type: logD

[[record]]
structure_as_smiles = "COc1ccc2nc(NC(C)C)nc(NCc3ccco3)c2c1"
endpoint_result = 3.58

[[record]]
structure_as_smiles = "CC(C)Nc1nc(NCc2ccco2)c2ccc(Cl)cc2n1"
endpoint_result = 3.91

[[record]]
structure_as_smiles = "Cc1cccc2c(NCc3ccco3)nc(NC(C)C)nc12"
endpoint_result = 3.55

[[record]]
structure_as_smiles = "CNc1nc(NCc2ccccc2)c2ccccc2n1"
endpoint_result = 3.14

[[record]]
structure_as_smiles = "OCCNc1nc(NCc2ccco2)c2ccccc2n1"
endpoint_result = 2.19

[[record]]
structure_as_smiles = "CCCCNc1nc(NCCCC)c2ccccc2n1"
endpoint_result = 3.89

[[record]]
structure_as_smiles = "c1ccc(CNc2nc(Nc3ccccc3)c3ccccc3n2)cc1"
endpoint_result = 4.25

[[record]]
structure_as_smiles = "c1ccc(CNc2nc(Nc3ccccc3)nc3ccccc23)cc1"
endpoint_result = 4.17

[[record]]
structure_as_smiles = "CC(C)Nc1nc(NCC(F)(F)F)c2ccccc2n1"
endpoint_result = 3.19

[[record]]
structure_as_smiles = "COc1ccc2c(NCc3ccco3)nc(NC(C)C)nc2c1"
endpoint_result = 3.7

[[record]]
structure_as_smiles = "COc1cccc2c(NCc3ccco3)nc(NC(C)C)nc12"
endpoint_result = 3.4

[[record]]
structure_as_smiles = "CNc1nc(NCc2ccccc2)nc2ccccc12"
endpoint_result = 2.96

[[record]]
structure_as_smiles = "FC(F)(F)CNc1nc(NCc2ccco2)c2ccccc2n1"
endpoint_result = 4.2

[[record]]
structure_as_smiles = "CC(C)Nc1nc(NCc2ccco2)c2c(Cl)cccc2n1"
endpoint_result = 4.44

[[record]]
structure_as_smiles = "CC(C)Nc1nc(N(C)C)c2ccccc2n1"
endpoint_result = 3.13

[[record]]
structure_as_smiles = "Cc1ccc2c(NCc3ccco3)nc(NC(C)C)nc2c1"
endpoint_result = 3.61

[[record]]
structure_as_smiles = "CSCCNc1nc(NC(C)C)nc2ccccc12"
endpoint_result = 3.02


----------
experiment: Distribution coefficient, log D of the compound at pH 3; assay type: physicochemical; conditions: octanol/water
measurement.type: logD

[[record]]
structure_as_smiles = "Cc1cccc2c(NCc3ccco3)nc(NC(C)C)nc12"
endpoint_result = 1.57

[[record]]
structure_as_smiles = "CCCCNc1nc(NCc2ccccc2)nc2ccccc12"
endpoint_result = 2.86

[[record]]
structure_as_smiles = "COc1ccc2nc(NC(C)C)nc(NCc3ccco3)c2c1"
endpoint_result = 2.95

[[record]]
structure_as_smiles = "CC(C)Nc1nc(NCc2ccco2)c2ccccc2n1"
endpoint_result = 2.18

[[record]]
structure_as_smiles = "CC(C)Nc1nc(NCC(F)(F)F)c2ccccc2n1"
endpoint_result = 2.4

[[record]]
structure_as_smiles = "FC(F)(F)CNc1nc(NCc2ccco2)c2ccccc2n1"
endpoint_result = 2.02

[[record]]
structure_as_smiles = "CSCCNc1nc(NC(C)C)nc2ccccc12"
endpoint_result = 2.06

[[record]]
structure_as_smiles = "CNc1nc(NCc2ccccc2)nc2ccccc12"
endpoint_result = 2

[[record]]
structure_as_smiles = "COc1ccc2c(NCc3ccco3)nc(NC(C)C)nc2c1"
endpoint_result = 3.11

[[record]]
structure_as_smiles = "CC(C)Nc1nc(NCc2ccco2)c2cccc(Cl)c2n1"
endpoint_result = 2.38

[[record]]
structure_as_smiles = "CC(C)Nc1nc(NCc2ccco2)c2cc(Cl)ccc2n1"
endpoint_result = 2.6

[[record]]
structure_as_smiles = "c1ccc(CNc2nc(Nc3ccccc3)nc3ccccc23)cc1"
endpoint_result = 2.78

[[record]]
structure_as_smiles = "Cc1ccc2c(NCc3ccco3)nc(NC(C)C)nc2c1"
endpoint_result = 1.58

[[record]]
structure_as_smiles = "OCCNc1nc(NCc2ccco2)c2ccccc2n1"
endpoint_result = 1.48

[[record]]
structure_as_smiles = "CC(C)Nc1nc(NCc2ccco2)c2ccc(Cl)cc2n1"
endpoint_result = 2.51

[[record]]
structure_as_smiles = "CCCCNc1nc(NCCCC)c2ccccc2n1"
endpoint_result = 2.91

[[record]]
structure_as_smiles = "c1ccc(CNc2nc(Nc3ccccc3)c3ccccc3n2)cc1"
endpoint_result = 2.67

[[record]]
structure_as_smiles = "CC(C)Nc1nc(NCc2ccco2)c2c(Cl)cccc2n1"
endpoint_result = 2.62

[[record]]
structure_as_smiles = "COc1cccc2nc(NC(C)C)nc(NCc3ccco3)c12"
endpoint_result = 2.53

